Entry source: patent US20250346569A1

- system_name: UniProt:J9SQF3
- assay_details: Monitoring the TRPM3 ion channel driven Ca2+ uptake (Fluo-4 AM assay)
- measurement_conditions: TRPM3 overexpressing flip-in HEK293 cells, channel stimulated with Pregnenolone sulfate (PS) 50 μM
The following compounds are listed with their measured IC50 values.

compound | system_name | IC50
Cc1sc2ccc(OCc3ccccc3F)cc2c1C(=O)NC1(CO)COC1 | UniProt:J9SQF3 | < 1000 nM
Cc1sc2ccc(OCc3ccccc3F)cc2c1C(=O)NC1(C(N)=O)CCOCC1 | UniProt:J9SQF3 | < 1000 nM
Cc1sc2ccc(OCc3ccccc3F)cc2c1C(=O)NC1CCNC1=O (centres unmarked) | UniProt:J9SQF3 | < 1000 nM
Cc1sc2ccc(OCc3ccccn3)cc2c1C(=O)NC1(CO)CC1 | UniProt:J9SQF3 | 1000 to 20000 nM

Below: the item to evaluate.
Suppose we examine the compound Cc1ncsc1COc1ccc2sc(C)c(C(=O)N[C@H](C)C(N)=O)c2c1 ; what IC50 value has been reported?
< 1000 nM

----------
// values below are reported pIC50
- system_name: mouse TRPM3α2 (mTRPM3) ion channel (Mus musculus)
- assay_details: Monitoring the TRPM3 ion channel driven Ca2+ uptake (Fluo-4 AM assay)
- measurement_conditions: TRPM3 overexpressing flip-in HEK293 cells, channel stimulated with Pregnenolone sulfate (PS) 50 μM
pIC50: −log10 of the molar value.

Requested field: pIC50. Item: Cc1ncsc1COc1ccc2sc(C)c(C(=O)NC3CCN(C)C3)c2c1 (stereo not shown) [Cpd 126]
> 6.00

# input compound: CNC(=O)c1c(C)sc2ccc(OCc3ccccc3)cc12 [Cpd 134] ; wanted: its pIC50
< 4.70

// lookup pIC50 for Cc1ncsc1COc1ccc2sc(C)c(C(=O)NC3CN(C)CC3(F)F)c2c1 (stereo not shown) [Cpd 122]
> 6.00

Reported pIC50, compound Cc1sc2ccc(OCc3ccccc3)cc2c1C(=O)O [Cpd 108] : ____
> 6.00

Suppose we examine the compound Cc1sc2ccc(OCc3cccnc3C(F)(F)F)cc2c1C(=O)N[C@H](C)C(N)=O [Cpd 004] ; what pIC50 value has been reported?
> 6.00

Item Cc1sc2ccc(OCc3cccnc3O)cc2c1C(=O)NC1(CO)CCOCC1 [Cpd 084] has what recorded pIC50?
> 6.00

# input compound: Cc1ncsc1COc1ccc2sc(C)c(C(=O)NCCN(C)C)c2c1 [Cpd 118] ; wanted: its pIC50
> 6.00

Which pIC50 reading was recorded for the compound Cc1sc2ccc(OCc3ccccc3)cc2c1C(=O)NCCN(C)C [Cpd 115] ?
4.70 to 6.00

----------
- system_name: mouse TRPM3α2 (mTRPM3) ion channel (Mus musculus, UniProt J9SQF3)
- Sequence (J9SQF3 1-1709 isoform J9SQF3-12): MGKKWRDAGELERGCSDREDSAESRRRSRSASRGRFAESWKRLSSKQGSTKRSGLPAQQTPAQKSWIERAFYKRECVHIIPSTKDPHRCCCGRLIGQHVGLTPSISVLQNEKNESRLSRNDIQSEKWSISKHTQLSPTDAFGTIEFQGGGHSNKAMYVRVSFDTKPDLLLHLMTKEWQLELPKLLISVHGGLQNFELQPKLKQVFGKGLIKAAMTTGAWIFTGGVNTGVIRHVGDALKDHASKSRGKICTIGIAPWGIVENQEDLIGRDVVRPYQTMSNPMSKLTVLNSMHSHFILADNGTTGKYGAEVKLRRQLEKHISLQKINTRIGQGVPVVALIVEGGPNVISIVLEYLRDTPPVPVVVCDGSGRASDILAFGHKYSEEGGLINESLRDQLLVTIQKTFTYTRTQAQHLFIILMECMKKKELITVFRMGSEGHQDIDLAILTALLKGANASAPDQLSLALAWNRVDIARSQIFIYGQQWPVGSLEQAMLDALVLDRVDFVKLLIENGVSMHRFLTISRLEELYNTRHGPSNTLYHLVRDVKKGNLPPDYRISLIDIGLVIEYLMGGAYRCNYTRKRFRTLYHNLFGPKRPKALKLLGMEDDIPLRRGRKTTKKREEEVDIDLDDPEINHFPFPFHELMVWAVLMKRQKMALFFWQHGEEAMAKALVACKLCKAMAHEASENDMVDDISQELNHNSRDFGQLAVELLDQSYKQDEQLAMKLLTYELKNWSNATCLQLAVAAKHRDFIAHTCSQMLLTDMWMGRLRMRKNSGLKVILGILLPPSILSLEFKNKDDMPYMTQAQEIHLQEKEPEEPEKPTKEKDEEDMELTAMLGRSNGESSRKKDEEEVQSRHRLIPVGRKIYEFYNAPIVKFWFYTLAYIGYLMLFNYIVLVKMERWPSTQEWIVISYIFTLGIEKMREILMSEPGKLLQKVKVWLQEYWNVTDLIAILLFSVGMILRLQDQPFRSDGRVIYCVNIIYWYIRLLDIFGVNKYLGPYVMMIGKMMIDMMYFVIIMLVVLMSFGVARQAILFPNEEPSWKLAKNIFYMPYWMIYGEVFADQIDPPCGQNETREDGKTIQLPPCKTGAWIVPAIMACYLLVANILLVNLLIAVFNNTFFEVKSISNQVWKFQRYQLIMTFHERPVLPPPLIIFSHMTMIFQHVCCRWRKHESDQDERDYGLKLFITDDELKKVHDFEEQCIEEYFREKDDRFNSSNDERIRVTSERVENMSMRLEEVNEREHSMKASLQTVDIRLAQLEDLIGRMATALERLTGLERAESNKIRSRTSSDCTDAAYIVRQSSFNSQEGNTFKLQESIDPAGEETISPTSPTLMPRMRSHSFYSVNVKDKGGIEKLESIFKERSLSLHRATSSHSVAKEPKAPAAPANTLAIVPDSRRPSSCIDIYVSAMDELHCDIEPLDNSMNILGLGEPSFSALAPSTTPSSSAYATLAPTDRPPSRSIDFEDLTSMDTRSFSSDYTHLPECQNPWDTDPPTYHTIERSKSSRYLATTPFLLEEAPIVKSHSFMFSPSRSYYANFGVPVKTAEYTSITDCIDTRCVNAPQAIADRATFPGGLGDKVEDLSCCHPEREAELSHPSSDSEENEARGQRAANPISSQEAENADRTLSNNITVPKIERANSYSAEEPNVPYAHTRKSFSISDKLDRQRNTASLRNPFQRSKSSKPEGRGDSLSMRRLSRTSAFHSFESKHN
- assay_details: Monitoring the TRPM3 ion channel driven Ca2+ uptake (Fluo-4 AM assay)
- measurement_conditions: TRPM3 overexpressing flip-in HEK293 cells, channel stimulated with Pregnenolone sulfate (PS) 50 μM
- Description: Monitoring the TRPM3 ion channel driven Ca^2+ uptake. […] For mTRPM3, the intracellular Ca^2+ was measured with a Calcium responsive dye, Fluor-4 AM ester (Invitrogen). […] Channel inhibition was calculated compared to a non-PS stimulated control versus a condition stimulated with PS (50 μM) with vehicle. […]
IC50 listing for selected compounds.

compound | IC50
Cc1sc2ccc(OCc3ccccn3)cc2c1C(=O)N[C@@H](CO)C(N)=O | < 1000 nM
Cc1ncsc1COc1ccc2sc(C)c(C(=O)Nc3ccn(C)n3)c2c1 | < 1000 nM
Cc1sc2ccc(OCc3ccccc3)cc2c1C(=O)NC1CCOC1 (stereo not drawn) | < 1000 nM
Cc1sc2ccc(OCc3cccnc3C(F)(F)F)cc2c1C(=O)NC1(CO)CCOCC1 | 1000 to 20000 nM
CN1CCC(NC(=O)c2c(C(F)F)sc3ccc(OCc4ccccc4)cc23)CC1 | 1000 to 20000 nM

Returns the measured IC50 for the input compound. Input: Cc1ncc(COc2ccc3sc(C)c(C(=O)N[C@H](CO)C(N)=O)c3c2)s1
< 1000 nM

Give its IC50 value. Item: Cc1ncsc1COc1ccc2sc(C)c(C(=O)NCc3cccc(O)n3)c2c1
< 1000 nM

Which IC50 value belongs to CNC(=O)c1c(C)sc2ccc(OCc3cccnc3C(F)(F)F)cc12 ?
< 1000 nM

What value of IC50 has been recorded for this entry: Cc1ncsc1COc1ccc2sc(C)c(C(=O)NC3(CO)COC3)c2c1
< 1000 nM
